# credit: ChEMBL document CHEMBL4406873

- System under test: Broad substrate specificity ATP-binding cassette transporter ABCG2 (Homo sapiens)
- Sequence (Q9UNQ0 whole entry): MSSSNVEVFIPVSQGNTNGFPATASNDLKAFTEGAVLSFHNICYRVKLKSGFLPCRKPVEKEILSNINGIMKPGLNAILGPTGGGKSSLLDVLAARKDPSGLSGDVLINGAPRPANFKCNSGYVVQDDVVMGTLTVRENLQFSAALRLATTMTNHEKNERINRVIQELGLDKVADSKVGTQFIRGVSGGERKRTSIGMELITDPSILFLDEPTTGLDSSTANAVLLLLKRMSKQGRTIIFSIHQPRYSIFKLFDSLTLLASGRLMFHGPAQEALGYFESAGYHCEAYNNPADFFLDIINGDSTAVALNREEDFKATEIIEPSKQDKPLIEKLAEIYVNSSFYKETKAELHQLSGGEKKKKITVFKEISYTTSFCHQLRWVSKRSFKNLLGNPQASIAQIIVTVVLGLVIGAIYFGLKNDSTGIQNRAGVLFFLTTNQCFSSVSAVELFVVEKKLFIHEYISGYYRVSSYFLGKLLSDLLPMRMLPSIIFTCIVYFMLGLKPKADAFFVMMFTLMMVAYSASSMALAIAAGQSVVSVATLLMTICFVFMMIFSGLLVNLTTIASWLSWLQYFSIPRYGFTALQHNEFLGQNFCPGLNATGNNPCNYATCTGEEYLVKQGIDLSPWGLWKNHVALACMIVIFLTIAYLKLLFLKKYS
- Procedure summary: Inhibition of ABCG2 (unknown origin) expressed in HEK293 cells assessed as increase in mitoxantrone accumulation incubated for 30 mins by flow cytometric method
pEC50: −log10 of the molar value.
# key: entry, value: pEC50
Measurement type: pEC50

COc1ccc2[nH]cc(CCNC(=O)c3cc(=O)c4c(OCc5ccc(Br)cc5Br)cccc4o3)c2c1: 7.34
COc1ccc2[nH]cc(CCNC(=O)c3cc(=O)c4c(OCc5cc(Br)cc(Br)c5)cccc4o3)c2c1: 7.01
